Biological target: T1, human OX40 on cells (human, UniProt P43489 29-277)
T1 sequence: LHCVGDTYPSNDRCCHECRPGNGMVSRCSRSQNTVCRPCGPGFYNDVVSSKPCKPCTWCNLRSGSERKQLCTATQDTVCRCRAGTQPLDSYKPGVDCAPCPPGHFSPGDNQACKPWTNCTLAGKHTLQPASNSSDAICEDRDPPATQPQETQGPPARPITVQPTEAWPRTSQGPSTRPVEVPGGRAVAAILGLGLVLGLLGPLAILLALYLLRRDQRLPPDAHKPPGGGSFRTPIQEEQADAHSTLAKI
Assay: cell-based or functional assay
outcome_measure: IFNγ EC50, CD4 T cells + CHO-CD3-CD32A (pM)
Report only the number, with the unit pM understood.

The binder OX40.17 (antibody, human IgG1, kappa, V domains shown) VH: EVQLVESGGGLVQPGGSLRLSCAASGFTFSSYDMHWVRQTTGKGLEWVSVIGTAGDTYYPGSVKGRFTISRENAKNSLYLQMNSLRAGDTAVYYCARGGMGNYFDYWGQGTLVTVSS VL: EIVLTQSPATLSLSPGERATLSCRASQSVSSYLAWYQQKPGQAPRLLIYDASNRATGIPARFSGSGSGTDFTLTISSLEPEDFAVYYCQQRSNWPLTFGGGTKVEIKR showed IFNγ EC50, CD4 T cells + CHO-CD3-CD32A equal to 44

The binder OX40.16 (antibody, human IgG1, kappa, V domains shown) VH: EVQLVQSGGGLVQPGGSLRLSCAGSGFTFSSYAMYWVRQAPGKGLEWVSAIDTDGGTFYADSVRGRFTISRDNAKNSLYLQMNSLRAEDTAVYFCARLGEGYFFDYWGQGTLVTVSS VL: EIVLTQSPATLSLSPGERATLSCRASQSVSSYLAWYQQKPGQAPRLLIYDASNRATGIPARFSGSGSGTDFTLTISSLEPEDFAVYYCQQRSNWPPTFGGGTKVEIKR showed IFNγ EC50, CD4 T cells + CHO-CD3-CD32A equal to 44

The binder OX40.6 (antibody, human IgG1, kappa, V domains shown) VH: EVQLVQSGGGLVQPGGSLRLSCAGSGFTFSNYAMYWVRQAPGKGLEWVSAIGIGGDTFYTDSVKGRFTISRDNAKNSLSLQMNSLRAEDTAVYYCARMGTGYFFDYWGQGTLVTVSS VL: EIVLTQSPATLSLSPGERATLSCRASQSVSSYLAWYQQKPGQAPRLLIYDASNRATGIPARFSGSGSGTDFTLTISSLEPEDFAVYYCQQRSNWPLTFGPGTKVDIKR showed IFNγ EC50, CD4 T cells + CHO-CD3-CD32A equal to 33
